Origin of values: paper PMC10216305

# assay_procedure: in vivo
# Design: species or system mice
# condition_notes: C57, mouse, iv, 0.037 MBq, total radioactivity, Uptake ratio Tumor/muscle
Positions of bridges follow the written chain, without caps; N, C: chain ends. Non-standard residues stand in square brackets, D forms with d. Residues, ends and D or L forms follow the SMILES beside them. *: point of attachment. NOTA = O=C(O)CN1CCN(CC(=O)O)CCN(CC(=O)*)CC1; Nle = CCCC[C@H](N)C(=O)O
endpoint_label: tissue to tissue ratio at 24 h
Simply state the number, no unit and no words.

CCCC[C@H](NC(=O)COCCOCCNC(=O)CN1CCN(CC(=O)O)CCN(CC(=O)O)CC1)C(=O)N[C@H]1CC(=O)NCCCC[C@@H](C(N)=O)NC(=O)[C@H](Cc2c[nH]c3ccccc23)NC(=O)[C@H](CCCNC(=N)N)NC(=O)[C@@H](Cc2ccccc2)NC(=O)[C@H](Cc2c[nH]cn2)NC1=O [^67Cu-NOTA-PEG2Nle-CycMSHhex, metal not drawn]	913

Now for a further compound.
Looking up CCCC[C@H](NC(=O)CNC(=O)CNC(=O)CN1CCN(CC(=O)O)CCN(CC(=O)O)CC1)C(=O)N[C@H]1CC(=O)NCCCC[C@@H](C(N)=O)NC(=O)[C@H](Cc2c[nH]c3ccccc23)NC(=O)[C@H](CCCNC(=N)N)NC(=O)[C@@H](Cc2ccccc2)NC(=O)[C@H](Cc2c[nH]cn2)NC1=O [^67Cu-NOTA-GGNle-CycMSHhex, ^67Cu-NOTA-GlyGlyNle-CycMSHhex, metal not drawn] ({NOTA}-GG[Nle]DH[dF]RWK-NH2; lactam 4-9) , I found its tissue to tissue ratio at 24 h recorded as 492
